Attribution: ChEMBL document CHEMBL4138161

Exercise: for every item that follows, state its recorded MIC80.
- Tested on: Nakaseomyces glabratus
- protocol-details: Antifungal activity against Candida glabrata 537 after 24 hrs by spectrophotometric analysis
- Type: functional
- condition-set: Nakaseomyces glabratus, 537, 24 h
One number for each entry, in µg/mL.

A selection of reference data follows.
| compound | readout-value |
| --- | --- |
| Cc1cc[n+]([O-])c2c1C(=O)c1sc([N+](=O)[O-])cc1C2=O | 64 |
| CCc1cnc2c(c1)C(=O)c1sc([N+](=O)[O-])cc1C2=O | 1 |
| Cc1cnc2c(c1C)C(=O)c1sc([N+](=O)[O-])cc1C2=O | 1 |
| Cc1cnc2c(c1)C(=O)c1sc([N+](=O)[O-])cc1C2=O | 1 |
| Cc1ccnc2c1C(=O)C1=C(OC(C)(C)C1)C2=O | 16 |

Hey, quick one: what's MIC80 for each of these?
1. Cc1ccnc2c1[C@H](O)c1sc([N+](=O)[O-])cc1[C@@H]2O (relative stereo)
2. O=C1c2ccccc2-c2nccc3ccnc1c23
3. CCC(C)n1ncn(-c2ccc(N3CCN(c4ccc(OCC5COC(Cn6cncn6)(c6ccc(Cl)cc6Cl)O5)cc4)CC3)cc2)c1=O (stereo unspecified)

Given back:
[2, 16, 1]

Hey, quick one: what's MIC80 for each of these?
1. CCOC(=O)c1ccnc2c1C(=O)c1sc([N+](=O)[O-])cc1C2=O
2. CC(C)(C)c1cnc2c(c1)C(=O)c1sc([N+](=O)[O-])cc1C2=O

Given back:
[4, 4]

----------
- Tested on: Candida parapsilosis
- protocol-details: Antifungal activity against Candida parapsilosis 22019 after 24 hrs by spectrophotometric analysis
- Type: functional
- condition-set: Lodderomyces parapsilosis, 22019, 24 h
endpoint-label: MIC80 (µg/mL)
One number for each entry, in µg/mL.

A selection of reference data follows.
| compound | units-text | readout-value |
| --- | --- | --- |
| CCC(C)n1ncn(-c2ccc(N3CCN(c4ccc(OCC5COC(Cn6cncn6)(c6ccc(Cl)cc6Cl)O5)cc4)CC3)cc2)c1=O (stereo not given) [ITRACONAZOLE] | µg/mL | 8 |
| CCc1cnc2c(c1)C(=O)c1sc([N+](=O)[O-])cc1C2=O | µg/mL | 1 |
| CCCCc1ccnc2c1C(=O)c1sc([N+](=O)[O-])cc1C2=O | µg/mL | 1 |
| Cc1ccnc2c1C(=O)c1sc([N+](=O)[O-])cc1C2=O | µg/mL | 1 |
| COc1ccccc1-c1ccnc2c1C(=O)c1sc([N+](=O)[O-])cc1C2=O | µg/mL | 16 |
| OC(Cn1cncn1)(Cn1cncn1)c1ccc(F)cc1F [FLUCONAZOLE] | µg/mL | 2 |

Hey, quick one: what's MIC80 for each of these?
1. O=C1c2cc([N+](=O)[O-])sc2C(=O)c2cccnc21
2. O=C1c2ccccc2-c2nccc3ccnc1c23 [SAMPANGINE]
3. CCCCc1cnc2c(c1)C(=O)c1sc([N+](=O)[O-])cc1C2=O
4. Cc1ccnc2c1[C@H](O)c1sc([N+](=O)[O-])cc1[C@@H]2O (relative stereo)
5. CN(C)c1ccc(-c2ccnc3c2C(=O)c2sc([N+](=O)[O-])cc2C3=O)cc1
6. Cc1cnc2c(c1C)C(=O)c1sc([N+](=O)[O-])cc1C2=O

Given back:
[2, 4, 4, 8, 32, 0.5]
